These entries and their values trace back to paper PMC10397247.

Listing: interaction score of selected binders
Test Target: T1, P8-AA
T1 chain: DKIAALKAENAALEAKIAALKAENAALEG
Procedure Details: two-hybrid library CCmax;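 further: natural log of median RNA to DNA barcode read ratio; higher means stronger binding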
Run Parameters: mean of both orientations
I only need the number, thanks.

[
  {
    "Binder": "DELAAEEAKNAALKAKLAAAKAEIAALEG [AP7-AA]",
    "interaction score": -0.66
  },
  {
    "Binder": "DKNAALKAENAALEAKIAALKAKIAALKG [P10-AA]",
    "interaction score": -1.28
  },
  {
    "Binder": "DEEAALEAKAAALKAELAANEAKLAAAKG [AP6-AA]",
    "interaction score": -1.22
  }
]

For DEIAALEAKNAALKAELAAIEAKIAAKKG [AP5-AA] the binder record lists interaction score as 2.11

For DKNAALKAKIAALKAKIAALKAENAALEG [P12-AA] the binder record lists interaction score as -1.95

For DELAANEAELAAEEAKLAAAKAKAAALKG [AP4-AA] the binder record lists interaction score as -1.15

For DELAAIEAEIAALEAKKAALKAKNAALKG [AP3-AA] the binder record lists interaction score as -1.45

For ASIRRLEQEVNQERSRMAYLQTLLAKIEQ [4H_BCR] the binder record lists interaction score as -1.85

For DEIAALEAEIAALEAKNAALKAKNAALKG [P3-AA] the binder record lists interaction score as -0.983

For DENAALEAEIAALEAEIAALEAKNAALKG [P11-AA] the binder record lists interaction score as -1.23

For DEIAALEAKNAALKAEIAALEAKNAALKG [P7-AA] the binder record lists interaction score as 1.87

For DKIAALKAKNAALKAKNAALKAKIAALKG [P2-AA] the binder record lists interaction score as -1.37

For DKIAALKAKIAALKAENAALEAENAALEG [P4-AA] the binder record lists interaction score as -1.82

For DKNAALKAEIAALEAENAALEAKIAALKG [4H3606-AA] the binder record lists interaction score as -0.645

For DKLAAIKAKLAANKAKKAALKAKAAALKG [AP2-AA] the binder record lists interaction score as -1.86

For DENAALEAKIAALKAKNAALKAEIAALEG [4H1401-AA] the binder record lists interaction score as 0.854
